Reference for the values: paper PMC5540273

- Tested on: CDKL2
- test.conditions: concentration: 1 μM,replicates: in singlicate; n = 1;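 also: KINOMEscan kinase panel screen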
property.label: %Inh (%)
// return numeric value only (unit: %, not printed)

Use the examples below as a reference point.
Cl.Cl.Nc1nc(-c2ccc3c(N)n[nH]c3c2)cc(N2CCCC(NC(=O)c3ccccc3)C2)n1 (stereo not shown) :: 5
CCN(CC)CCCCNc1ncc2cc(-c3c(Cl)cccc3Cl)c(NC(=O)NC(C)(C)C)nc2n1 :: 0
Cl.Oc1cc(-c2nc(-c3ccccc3)[nH]c2-c2ccncc2)ccc1Cl :: 0

Switching to the query record.
input: Entry Cc1ccc(-n2nc(C(C)(C)C)cc2NC(=O)Nc2ccc(OCCN3CCOCC3)c3ccccc23)cc1 has what %Inh?
output: 0

* * *

- Test system: RSK4(Kin.Dom.2-C-terminal)
- Construct: gene RPS6KA6
- test.conditions: concentration: 1 μM,replicates: in singlicate; n = 1
property.label: %Inh (%)
// return numeric value only (unit: %, not printed)

Cl.Cl.NC[C@H](Cc1ccc(C(F)(F)F)cc1)NC(=O)c1cc(Br)c(-c2ccnc3[nH]ccc23)s1 [GSK1487252] :: 24
Cl.Cl.Nc1nc(-c2ccc3c(N)n[nH]c3c2)cc(N2CCCC(NC(=O)c3ccccc3)C2)n1 (centres unmarked) [GSK2286775] :: 11
Cl.Oc1cc(-c2nc(-c3ccccc3)[nH]c2-c2ccncc2)ccc1Cl [SB-386023] :: 57
C=CC(=O)Nc1cc2c(Nc3ccc(F)c(Cl)c3)ncnc2cc1OCCCN1CCOCC1 [GW781483] :: 35

Switching to the query record.
input: Entry NC(=O)c1cc(-c2ccccc2)cc2c(C3CCNCC3)c[nH]c12 [GSK301362] has what %Inh?
output: 0

* * *

- System: MST2
- Construct: gene STK3
- test.conditions: concentration: 1 μM,replicates: in singlicate; n = 1
Attribute: %Inh
// return numeric value only (unit: %, not printed)

C[C@@H]1CCN(C(=O)CC#N)C[C@@H]1N(C)c1ncnc2[nH]ccc12 :: 0

input: Entry Cc1ccc(-n2nc(C(C)(C)C)cc2NC(=O)Nc2ccc(OCCN3CCOCC3)c3ccccc23)cc1 has what %Inh?
output: 33

input: Same question for Cc1occc1-c1nc(N)c(OC[C@@H](N)Cc2c[nH]c3ccccc23)cc1-c1cc2c(C)n[nH]c2cn1 please.
output: 78

input: Same question for Nc1nc(Nc2ccccc2)cc(-c2ccc3c(N)n[nH]c3c2)n1 please.
output: 5

input: Same question for NC(=O)c1cc(-c2ccccc2)cc2c(C3CCNCC3)c[nH]c12 please.
output: 86

input: Same question for CCN(CC)CCOc1ccc(Nc2ncc3cc(-c4c(Cl)cccc4Cl)c(=O)n(C)c3n2)cc1 please.
output: 58

* * *

- Test system: IKK-beta
- Construct: gene IKBKB
- test.conditions: concentration: 1 μM,replicates: in singlicate; n = 1
property.label: %Inh (%)
// return numeric value only (unit: %, not printed)

input: Entry CN(C)CCOc1ccc(-c2cc(-c3c[nH]nc3-c3ccccn3)ccn2)cc1 [GW835314] has what %Inh?
output: 0

input: Same question for CC(C)Nc1cc(-c2ccc3c(N)n[nH]c3c2)nc(N)n1 [GSK2221681] please.
output: 19

input: Same question for CC(C)N1C(=O)Cc2cc(Nc3ncc(C(F)(F)F)c(NCc4cccc(S(C)(=O)=O)c4)n3)ccc21 please.
output: 26

input: Same question for COc1ccc(C[C@@H](CN)NC(=O)c2cc(Br)c(-c3ccnc4[nH]ccc34)s2)cc1.Cl.Cl [GSK1389063] please.
output: 83

input: Same question for C[C@H]1Oc2cc(cnc2N)-c2c(nn(C)c2C#N)CN(C)C(=O)c2ccc(F)cc21 please.
output: 0
